Values from patent US9999619B2

target: human JAK1 (a.a. 837-1142); experiment: In vitro JAK kinase assay (HTRF, phosphorylation of a biotinylated peptide), JAK1; type: biochemical; conditions: ratio of JAK2 IC50 to JAK1 IC50, measured at 1 mM ATP
PARAMETER: IC50 Ratio JAK2/JAK1

CC1(N2CC(CC#N)(n3cc(-c4ncnc5[nH]ccc45)cn3)C2)CCN(C(=O)c2cccc(F)c2)CC1
4.0
N#CCC1(n2cc(-c3ncnc4[nH]ccc34)cn2)CN(C2CCN(C(=O)c3ccc(-c4cccc5ccncc45)c(F)c3)CC2)C1
8.1
CN(C)Cc1cc(C(=O)N2CCC(N3CC(CC#N)(n4cc(-c5ncnc6[nH]ccc56)cn4)C3)CC2)nc(C(F)(F)F)n1
55
N#CCC1(n2cc(-c3ncnc4[nH]ccc34)cn2)CN(C2CCN(C(=O)c3cc(F)cc(C(F)(F)F)c3)CC2)C1
6.7
N#CCC1(n2cc(-c3ncnc4[nH]ccc34)cn2)CN(C2CCN(C(=O)Nc3cscc3Br)CC2)C1
15.0

(I) N#CCC1(n2cc(-c3c(F)cnc4[nH]ccc34)cn2)CN(C2CCN(C(=O)c3c(F)cncc3F)CC2)C1
(II) N#CCC1(n2cc(-c3ncnc4[nH]ccc34)cn2)CN(C2CCN(C(=O)Nc3cnccc3C(F)(F)F)CC2)C1
Task: Between I and II , whose recorded IC50 Ratio JAK2/JAK1 is greater? # respond with the chosen item's label
Output: II

(a) COc1cccc(F)c1C(=O)N1CCC(N2CC(CC#N)(n3cc(-c4ncnc5[nH]ccc45)cn3)C2)CC1
(b) N#CCC1(n2cc(-c3ncnc4[nH]ccc34)cn2)CN(C2CCN(C(=O)c3cc4ccc(C(F)(F)F)cc4s3)CC2)C1
(c) N#CCC1(n2cc(-c3ncnc4[nH]ccc34)cn2)CN(C2CCN(Cc3ccnc(Br)c3)CC2)C1
(d) N#CCC1(n2cc(-c3ncnc4[nH]ccc34)cn2)CN(C2CCN(C(=O)c3cc(F)cc(F)c3)CC2)C1
Task: Provide the items ranked by increasing IC50 Ratio JAK2/JAK1. Respond with the label ranking, as requested.
Output: b, c, a, d

(P) N#CCC1(n2ccc(-c3ncnc4[nH]ccc34)c2)CN(C2CCN(C(=O)c3c(F)ccc(F)c3F)CC2)C1
(Q) N#CCC1(n2cc(-c3ncnc4[nH]ccc34)cn2)CN(C2CCN(C(=O)c3nc(C(F)(F)F)cs3)CC2)C1
(R) CC1CC(N2CC(CC#N)(n3cc(-c4ncnc5[nH]ccc45)cn3)C2)CCN1Cc1c(F)cccc1Cl (stereo not shown) [Example 245]
(S) CC(C)(C)C(=O)Nc1ncccc1CN1CCC(N2CC(CC#N)(n3cc(-c4ncnc5[nH]ccc45)cn3)C2)CC1
Task: Descending sort on IC50 Ratio JAK2/JAK1 required. Respond with the label ranking, as requested.
Output: Q, P, S, R

(P) N#CCC1(n2cc(-c3ncnc4[nH]ccc34)cn2)CN(C2CCN(C(=O)c3ccc(Cl)s3)CC2)C1
(Q) N#CCC1(n2cc(-c3ccnc4[nH]ccc34)cn2)CN(C2CCN(C(=O)c3cncc(C(F)(F)F)n3)CC2)C1
Task: Looking only at measured IC50 Ratio JAK2/JAK1, which entry is lower, P or Q ? # respond with the chosen item's label
Output: P
(P: 5.5, Q: 11.7)

----------
molecular target: Jak2 (a.a. 828-1132) (Homo sapiens (Human))
PARAMETER: IC50

Some compounds with recorded IC50:
N#CCC1(n2cc(-c3ncnc4[nH]ccc34)cn2)CN(C2CC3CCC(C2)N3C(=O)C2CCCC2)C1 (stereo not shown) [Example 145]
10 to 50 nM
N#CCC1(n2cc(-c3ncnc4[nH]ccc34)cn2)CN(C2CCN(C(=O)Nc3ccccc3C(F)(F)F)CC2)C1 [Example 157]
50 to 100 nM
COc1ccc(C(=O)N2CCC(N3CC(CC#N)(n4cc(-c5ncnc6[nH]ccc56)cn4)C3)CC2)cc1F [Example 5]
10 to 50 nM
N#CCC1(n2cc(-c3ncnc4[nH]ccc34)cn2)CN(C2CCN(C(=O)c3cc(F)cc(Br)c3)CC2)C1 [Example 29]
≤ 10 nM
N#CCC1(n2cc(-c3c(F)cnc4[nH]ccc34)cn2)CN(C2CCN(C(=O)Nc3ccc(F)cc3C(F)(F)F)CC2)C1 [Example 328]
10 to 50 nM
N#CCC1(n2cc(-c3ncnc4[nH]ccc34)cn2)CN(C2CCN(C(=O)c3ccsc3Br)CC2)C1 [Example 75]
≤ 10 nM

Task: Request the reported IC50 associated with N#CCC1(n2cc(-c3ccnc4[nH]ccc34)cn2)CN(C2CCN(C(=O)c3ccc(O)cc3F)CC2)C1 [Example 297]
Output: ≤ 10 nM

----------
biological target: Jak2 (a.a. 828-1132) (Homo sapiens (Human), UniProt O60674)
Sequence (O60674 828-1132): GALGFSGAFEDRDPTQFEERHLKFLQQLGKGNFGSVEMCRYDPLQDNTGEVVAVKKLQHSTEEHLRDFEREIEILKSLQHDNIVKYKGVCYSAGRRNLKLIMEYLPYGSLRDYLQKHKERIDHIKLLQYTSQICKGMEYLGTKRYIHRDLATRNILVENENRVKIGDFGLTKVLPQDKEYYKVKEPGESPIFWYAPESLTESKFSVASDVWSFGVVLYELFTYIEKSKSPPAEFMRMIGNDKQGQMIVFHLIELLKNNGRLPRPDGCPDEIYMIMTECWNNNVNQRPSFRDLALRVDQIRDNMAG
PARAMETER: IC50

Some compounds with recorded IC50:
N#CCC1(n2cc(-c3c(F)cnc4[nH]ccc34)cn2)CN(C2CCN(C(=O)Nc3cnccc3C(F)(F)F)CC2)C1
10 to 50 nM
COc1ccc(C(=O)N2CCC(N3CC(CC#N)(n4cc(-c5ncnc6[nH]ccc56)cn4)C3)CC2)cc1C#N
10 to 50 nM
N#CCC1(n2cc(-c3c(F)cnc4[nH]ccc34)cn2)CN(C2CCN(C(=O)c3ccc(F)cn3)CC2)C1
10 to 50 nM

Task: Request the reported IC50 associated with N#CCC1(n2cc(-c3ncnc4[nH]ccc34)cn2)CN(C2CCN(C(=O)c3ccnc(C(F)(F)F)c3)CC2)C1
Output: > 100 nM

Task: Try this compound too: N#CCC1(n2cc(-c3ncnc4[nH]ccc34)cn2)CN(C2CCN(C(=O)C3CCCCC3)CC2)C1
Output: 50 to 100 nM

Task: Try this compound too: N#CCC1(n2cc(-c3ncnc4[nH]ccc34)cn2)CN(C2CCN(S(=O)(=O)c3ccccc3C#N)CC2)C1
Output: ≤ 10 nM

----------
target: human JAK1 (a.a. 837-1142); test: In vitro JAK kinase assay (HTRF, phosphorylation of a biotinylated peptide), JAK1; format: biochemical; details: ratio of JAK2 IC50 to JAK1 IC50, measured at 1 mM ATP
PARAMETER: IC50 Ratio JAK2/JAK1

Some molecules with recorded IC50 Ratio JAK2/JAK1:
Cc1ccc(NC(=O)N2CCC(N3CC(CC#N)(n4cc(-c5ncnc6[nH]ccc56)cn4)C3)CC2)c(F)n1
6.7
N#CCC1(n2ccc(-c3ncnc4[nH]ccc34)c2)CN(C2CCN(C(=O)Nc3ncccc3C(F)(F)F)CC2)C1
3.9

(P) N#CCC1(n2cc(-c3ncnc4[nH]ccc34)cn2)CN(C2CCN(C(=O)c3ccc(-c4cccc5cnccc45)c(F)c3)CC2)C1
(Q) N#CCC1(n2cc(-c3ncnc4[nH]ccc34)cn2)CN(C2CCN(C(=O)OCC3CC3)CC2)C1
Task: Between P and Q , whose recorded IC50 Ratio JAK2/JAK1 is greater? # respond with the chosen item's label
Output: Q
(Q: 10.6, P: 7.1)

----------
biological target: human JAK1 (a.a. 837-1142); assay: In vitro JAK kinase assay (HTRF, phosphorylation of a biotinylated peptide), JAK1; assay type: biochemical; settings: ratio of JAK2 IC50 to JAK1 IC50, measured at 1 mM ATP
PARAMETER: IC50 Ratio JAK2/JAK1

(P) N#CCC1(n2cc(-c3ncnc4[nH]ccc34)cn2)CN(C2CCN(C(=O)c3ccc(C#N)cc3)CC2)C1
(Q) N#CCC1(n2cc(-c3ncnc4[nH]ccc34)cn2)CN(C2CCN(Cc3c(Cl)cncc3Cl)CC2)C1
Task: Looking only at measured IC50 Ratio JAK2/JAK1, which entry is lower, P or Q ? # respond with the chosen item's label
Output: Q
(Q: 2.3, P: 5.2)

(1) N#CCC1(n2cc(-c3ncnc4[nH]ccc34)cn2)CN(C2CCN(C(=O)Nc3cccc(Cl)c3)CC2)C1
(2) COc1ncccc1NC(=O)N1CCC(N2CC(CC#N)(n3ccc(-c4ncnc5[nH]ccc45)c3)C2)CC1
Task: Between 1 and 2 , whose recorded IC50 Ratio JAK2/JAK1 is greater? # respond with the chosen item's label
Output: 2
